Tested on: Escherichia coli
experimental.details: Bactericidal activity against Escherichia coli ATCC 25922 after 18 hrs
Type: functional
stated.conditions: ATCC 25922, 18 h
property: MBC (µg/mL)
Express your answer in µg/mL, writing the number without its unit.

Below, 5 molecules whose answers are already recorded.
- smiles.repr: "CCOC(=O)c1sc(NC(=O)Nc2ccccc2)nc1C"
  measured.on: "Escherichia coli"
  MBC [µg/mL]: 25
- smiles.repr: "CCOC(=O)c1sc(NS(=O)(=O)c2ccccc2)nc1C"
  measured.on: "Escherichia coli"
  MBC [µg/mL]: 50
- smiles.repr: "Cc1nc(NC(=S)NC2CCCCC2)sc1C(=O)NN"
  measured.on: "Escherichia coli"
  MBC [µg/mL]: 100
- smiles.repr: "Cc1ccc(NC(=S)Nc2nc(C)c(C(=O)NN)s2)cc1"
  measured.on: "Escherichia coli"
  MBC [µg/mL]: 100
- smiles.repr: "Cc1nc(NC(=O)NC2CCCCC2)sc1C(=O)NN"
  measured.on: "Escherichia coli"
  MBC [µg/mL]: 100

Qu. Write down MBC measured for item Cc1nc(NC(=S)Nc2ccccc2)sc1C(=O)NN
Ans. 100

Qu. Write down MBC measured for item CCOC(=O)c1sc(NC(=S)Nc2ccc(C)cc2)nc1C
Ans. 100

Qu. Write down MBC measured for item CCOC(=O)c1sc(NC(=S)NC2CCCCC2)nc1C
Ans. 100

Qu. Write down MBC measured for item CCOC(=O)c1sc(NC(=O)c2cc(OC)c(OC)c(OC)c2)nc1C
Ans. 12.5

Qu. Write down MBC measured for item CCOC(=O)c1sc(NC(=S)Nc2ccc(F)cc2)nc1C
Ans. 25

Qu. Write down MBC measured for item CCOC(=O)c1sc(/N=C/c2cccs2)nc1C
Ans. 100

Qu. Write down MBC measured for item Cc1nc(NC(=O)Nc2ccccc2)sc1C(=O)NN
Ans. 12.5

Qu. Write down MBC measured for item Cc1nc(NC(=S)Nc2ccc(F)cc2)sc1C(=O)NN
Ans. 12.5

Qu. Write down MBC measured for item CCOC(=O)c1sc(NC(=O)C(F)(F)F)nc1C
Ans. 100

The measurements presented in this section are drawn from ChEMBL document CHEMBL3124924.
